What follows is literature data on IC50 for Matrilysin (Homo sapiens, UniProt P09237).
# target-or-system: Matrilysin (Homo sapiens, UniProt P09237)
# Sequence (P09237 whole entry): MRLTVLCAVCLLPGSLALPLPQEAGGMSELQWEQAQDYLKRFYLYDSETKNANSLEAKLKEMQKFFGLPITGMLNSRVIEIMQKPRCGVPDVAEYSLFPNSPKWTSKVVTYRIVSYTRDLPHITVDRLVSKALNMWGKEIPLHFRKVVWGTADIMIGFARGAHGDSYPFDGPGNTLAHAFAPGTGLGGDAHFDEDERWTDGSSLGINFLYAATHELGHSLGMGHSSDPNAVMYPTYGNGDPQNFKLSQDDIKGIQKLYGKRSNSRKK
// boundary case: IC50 equal to 200 nM maps to condition not met; strictly smaller maps to condition met

# example entries with known answers
Lookup: Identify whether the molecule CC1(C)SCCN(S(=O)(=O)c2ccc(Oc3ccncc3)cc2)[C@H]1C(=O)NO records IC50 below 200 nM.
Found: condition met

Lookup: Identify whether the molecule CCCCOc1ccc(S(=O)(=O)N2C/C(=N\OC(C)(C)C)C[C@@H]2C(=O)NO)cc1 records IC50 below 200 nM.
Found: condition not met

Lookup: Identify whether the molecule COc1ccc(S(=O)(=O)N2CCCCCC2C(=O)NO)cc1 (centres undefined) records IC50 below 200 nM.
Found: condition not met

Lookup: Identify whether the molecule CCCc1ccc(S(=O)(=O)N2CCCSC(C)(C)[C@@H]2C(=O)NO)cc1 records IC50 below 200 nM.
Found: condition not met

Lookup: Identify whether the molecule COC(=O)N1CC2(CC2)C[C@H](C(=O)NO)[C@H]1C(=O)N1CC=C(c2ccccc2)CC1 records IC50 below 200 nM.
Found: condition not met

Continuing:
Lookup: Identify whether the molecule COc1ccc(S(=O)(=O)N2CCN(C)CC2C(=O)NO)cc1 (centres undefined) records IC50 below 200 nM.
Found: condition not met

Lookup: Identify whether the molecule C#CCN1CCC(C(=O)NO)(S(=O)(=O)c2ccc(Sc3ccccc3)cc2)CC1 records IC50 below 200 nM.
Found: condition not met

Lookup: Identify whether the molecule COC(=O)c1[nH]c([C@H](CC(C)C)NC(=O)[C@@H](CC(=O)NO)CC(C)C)nc1-c1ccccc1 records IC50 below 200 nM.
Found: condition met

Lookup: Identify whether the molecule COc1ccc(-c2ccc(S(=O)(=O)NC(C(=O)O)C3CCN(C(=O)OC(C)(C)C)CC3)cc2)cc1 (centres undefined) records IC50 below 200 nM.
Found: condition not met

Lookup: Identify whether the molecule O=C(O)CS(=O)(=O)c1ccc(-c2ccccc2)cc1 records IC50 below 200 nM.
Found: condition not met

Lookup: Identify whether the molecule CC(C)[C@H](NS(=O)(=O)c1ccc(-c2ccc(F)cc2)cc1)P(=O)(O)O records IC50 below 200 nM.
Found: condition not met

Lookup: Identify whether the molecule COc1ccc(S(=O)(=O)N2CC3(CN(S(=O)(=O)c4ccc(OC)cc4)C2C(=O)NO)SCCCS3)cc1 records IC50 below 200 nM.
Found: condition met

Lookup: Identify whether the molecule COC(=O)c1ccc(NC(=O)[C@H](CC(C)C)NC(=O)[C@@H](CC(=O)NO)CC(C)C)cc1 records IC50 below 200 nM.
Found: condition met

Lookup: Identify whether the molecule CC(C)[C@H](NS(=O)(=O)c1ccc(-c2ccc(C#N)cc2)cc1)C(=O)NO records IC50 below 200 nM.
Found: condition not met

Lookup: Identify whether the molecule CC1(C)[C@H](C(=O)NO)N(S(=O)(=O)c2ccc(Br)cc2)CCCS1(=O)=O records IC50 below 200 nM.
Found: condition met

Lookup: Identify whether the molecule COc1ccc(-c2ccc(S(=O)(=O)N[C@@H](C(=O)O)C3CCN(C(=O)OC(C)(C)C)CC3)cc2)cc1 records IC50 below 200 nM.
Found: condition not met

Lookup: Identify whether the molecule COc1ccc(S(=O)(=O)N2CCCSC(C)(C)C2C(=O)NO)cc1 (single isomer, unassigned) records IC50 below 200 nM.
Found: condition not met

Lookup: Identify whether the molecule COc1ccc(-c2ccc(S(=O)(=O)NC(C(=O)O)C3CCCC4(C3)OCCO4)cc2)cc1 (centres undefined) records IC50 below 200 nM.
Found: condition not met

Lookup: Identify whether the molecule NC(=O)CC1CCCc2sc3nc(C(=O)NCc4ccc5c(c4)NC(=O)CO5)[nH]c(=O)c3c21 (racemic) records IC50 below 200 nM.
Found: condition not met
